Run description: Stability in simulated gastric fluid (SGF), RP-HPLC
Assay type: in vitro ADME
Measurement context: 37 °C, read-out: peptide degraded
No end group written: not given here.
Metric name: metabolised at 24 h, 150 µM (%)
Response body: numeric value in %, unit text excluded.

q: Item PTLHTHNRRRRR-NH2 [L-RD2, reference compound] has what recorded metabolised at 24 h, 150 µM?
a: 23

* * *

Run description: Comparison of RD2 metabolite profiles across species: rat liver microsomes
Format: in vitro ADME
Measurement context: Sprague Dawley, pooled rat liver microsomes; rat samples, 24 h; read-out: decrease of the intensity of the RD2 peak
Non-standard residues stand in square brackets, D forms with d. Residues, ends and D or L forms follow the SMILES beside them.
Metric name: metabolised at 24 h, 150 µM

q: // returns reported metabolised at 24 h, 150 µM for input CC(C)C[C@@H](NC(=O)[C@H](NC(=O)[C@H]1CCCN1)[C@H](C)O)C(=O)N[C@H](Cc1c[nH]cn1)C(=O)N[C@@H](C(=O)N[C@H](Cc1c[nH]cn1)C(=O)N[C@H](CC(N)=O)C(=O)N[C@H](CCCNC(=N)N)C(=O)N[C@H](CCCNC(=N)N)C(=O)N[C@H](CCCNC(=N)N)C(=O)N[C@H](CCCNC(=N)N)C(=O)N[C@H](CCCNC(=N)N)C(N)=O)[C@H](C)O [RD2, ptlhthnrrrrr] (H-[dP][dT][dL][dH][dT][dH][dN][dR][dR][dR][dR][dR]-NH2)
a: 17%

* * *

Assayed system: CYP1A (Homo sapiens, UniProt P05177)
Sequence (P05177 2-516): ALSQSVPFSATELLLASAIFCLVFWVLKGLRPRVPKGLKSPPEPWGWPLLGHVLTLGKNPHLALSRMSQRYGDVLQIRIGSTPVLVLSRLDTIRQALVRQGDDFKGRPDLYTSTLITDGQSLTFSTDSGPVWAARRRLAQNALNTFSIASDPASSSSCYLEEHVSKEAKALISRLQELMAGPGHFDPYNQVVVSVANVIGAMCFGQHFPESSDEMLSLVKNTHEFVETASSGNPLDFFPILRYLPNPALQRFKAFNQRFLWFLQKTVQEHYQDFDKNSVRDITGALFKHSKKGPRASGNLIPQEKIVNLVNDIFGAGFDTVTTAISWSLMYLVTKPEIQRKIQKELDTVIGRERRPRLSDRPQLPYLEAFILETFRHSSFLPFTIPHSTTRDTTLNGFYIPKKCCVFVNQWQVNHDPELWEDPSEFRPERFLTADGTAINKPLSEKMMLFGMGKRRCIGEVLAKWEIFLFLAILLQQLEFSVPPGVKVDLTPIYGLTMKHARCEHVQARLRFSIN
Run description: CYP isoform inhibition in human liver microsomes (Cyprotex)
Measurement context: human, human liver microsomes, probe ethoxyresorufin (0.5 µM)
Metric name: IC50 (nM)
Please respond with the number in nM and leave the unit unwritten.

q: Can you look up the measured IC50 of O=c1cc(-c2ccccc2)oc2c1ccc1ccccc12 [Alpha-naphthoflavone, reference compound] for me?
a: 78.1

* * *

Run description: Stability in human plasma, RP-HPLC
Format: in vitro ADME
Measurement context: female, 37 °C, read-out: half-life (first order kinetics fit) (converted)
No end group written: not given here.
Metric name: half-life at 150 µM (h)
Lab book: enter the figure in h, no units written.

q: Recorded half-life at 150 µM of PTLHTHNRRRRR-NH2 [L-RD2, reference compound] , please.
a: 2

* * *

Assayed system: CYP2C9 (Homo sapiens)
Sequence (P11712 whole entry, canonical isoform): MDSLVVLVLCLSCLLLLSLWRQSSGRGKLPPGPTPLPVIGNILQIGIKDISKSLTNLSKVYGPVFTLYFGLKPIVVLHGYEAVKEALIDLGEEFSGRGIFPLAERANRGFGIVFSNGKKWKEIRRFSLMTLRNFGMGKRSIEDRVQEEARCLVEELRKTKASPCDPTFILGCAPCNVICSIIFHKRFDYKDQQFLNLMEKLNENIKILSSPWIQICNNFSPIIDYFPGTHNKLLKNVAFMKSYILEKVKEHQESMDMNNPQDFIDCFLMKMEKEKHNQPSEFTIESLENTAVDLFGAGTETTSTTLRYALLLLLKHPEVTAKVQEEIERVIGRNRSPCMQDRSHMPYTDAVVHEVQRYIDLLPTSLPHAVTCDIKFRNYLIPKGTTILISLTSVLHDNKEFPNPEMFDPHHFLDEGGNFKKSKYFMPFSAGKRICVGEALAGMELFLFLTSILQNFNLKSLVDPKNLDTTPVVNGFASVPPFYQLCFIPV
Run description: CYP isoform inhibition in human liver microsomes (Cyprotex)
Measurement context: human, human liver microsomes
Non-standard residues stand in square brackets, D forms with d. Residues, ends and D or L forms follow the SMILES beside them.
Metric name: inhibition at 2.5 µM (%)
API: value field is a number in %; no unit string.

q: Would you kindly share the measured inhibition at 2.5 µM for CC(C)C[C@@H](NC(=O)[C@H](NC(=O)[C@H]1CCCN1)[C@H](C)O)C(=O)N[C@H](Cc1c[nH]cn1)C(=O)N[C@@H](C(=O)N[C@H](Cc1c[nH]cn1)C(=O)N[C@H](CC(N)=O)C(=O)N[C@H](CCCNC(=N)N)C(=O)N[C@H](CCCNC(=N)N)C(=O)N[C@H](CCCNC(=N)N)C(=O)N[C@H](CCCNC(=N)N)C(=O)N[C@H](CCCNC(=N)N)C(N)=O)[C@H](C)O [RD2, ptlhthnrrrrr] (H-[dP][dT][dL][dH][dT][dH][dN][dR][dR][dR][dR][dR]-NH2) ?
a: 0.607
